# assay.overview: inhibitors of poly I:C-induced TLR3 signaling, primary screen, cell-based, poly I:C stimulus, luciferase, 10K MLSCN set (AID 602277)
# condition.notes: HEK293-TLR3 RL24 IRF3 luciferase reporter, at 10 µM, stronger effect = higher value
Label scheme for inhibition: lower than -10% is no (0), -10% and above is yes (1).

- molecule: "CC1=C(C(=O)Nc2ccccc2C)C2(CCCC2)C(C(N)=O)C(=O)N1 (stereo not given)"
  cat: "yes (1)"
- molecule: "Cn1c(-c2ccc(F)cc2)cnc1SCC(=O)Nc1ccccc1N1CCOCC1"
  cat: "no (0)"
- molecule: "O=C(Nc1ccc2nc(-c3cccs3)[nH]c2c1)c1ccco1"
  cat: "no (0)"
- molecule: "Cc1nc(NCc2ccco2)c2oc3ccccc3c2n1"
  cat: "no (0)"
- molecule: "CCOC(=O)CNC(=O)Nc1nnc(-c2ccc(OCC)cc2)o1"
  cat: "no (0)"
- molecule: "CCCC1(C(=O)OCC)NC(c2ccc(N(C)C)cc2)C2C(=O)N(c3ccc(F)cc3)C(=O)C21 (stereo not given)"
  cat: "yes (1)"
- molecule: "COc1ccc(N2C(=O)CCC(C(=O)N3CCCCC3)C2c2ccc(OC)c(OC)c2)cc1 (stereo not given)"
  cat: "yes (1)"
- molecule: "Cc1ccc(OCC(O)CN2C(=O)NC(C)(C)C2=O)cc1C (stereo not given)"
  cat: "yes (1)"
- molecule: "COc1ccc(-c2oc3ncn(CCN4CCOCC4)c(=N)c3c2-c2ccc(OC)cc2)cc1"
  cat: "yes (1)"
- molecule: "O=C(NCCCN1CCCC1=O)c1ccc2c(=O)n(Cc3ccco3)c(=S)[nH]c2c1"
  cat: "no (0)"

###

# target.desc: Muscarinic acetylcholine receptor M4 (Homo sapiens) (UniProt P08173)
# Sequence (P08173 whole entry, looked up): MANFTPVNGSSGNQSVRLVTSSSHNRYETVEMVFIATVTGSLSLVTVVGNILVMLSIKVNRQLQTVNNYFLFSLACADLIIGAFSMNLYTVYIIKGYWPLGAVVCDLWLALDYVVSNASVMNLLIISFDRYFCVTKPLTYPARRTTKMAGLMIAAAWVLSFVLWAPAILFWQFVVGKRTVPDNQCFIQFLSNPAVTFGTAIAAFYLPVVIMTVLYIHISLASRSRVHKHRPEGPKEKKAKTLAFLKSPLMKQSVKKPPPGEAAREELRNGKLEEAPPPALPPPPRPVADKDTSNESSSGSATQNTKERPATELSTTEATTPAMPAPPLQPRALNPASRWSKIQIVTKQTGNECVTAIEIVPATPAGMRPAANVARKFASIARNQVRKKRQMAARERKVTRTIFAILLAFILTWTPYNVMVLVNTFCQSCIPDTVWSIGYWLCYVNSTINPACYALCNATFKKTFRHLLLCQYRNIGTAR
# assay.overview: compounds altering M4/GIRK thallium flux, either direction, primary screen, M4 allosteric agonist project, cell-based, HEK293 M4/GIRK, BTC-AM (AID 625);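 further: thallium influx through GIRK channels coupled to M4 in HEK293 cells with BTC-AM dye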
# condition.notes: at 10 µM, actives lie on both sides
Binary call on fluorescence slope with cut-off 0.005: strictly below means 1, and equality or higher means -1.

- smiles.record: "CCC(NC(=O)Nn1cnnc1)(C(F)(F)F)C(F)(F)F"
  target.desc: "Muscarinic acetylcholine receptor M4 (Homo sapiens) (UniProt P08173)"
  cat: 1
- smiles.record: "Cc1c(=O)n(OCc2c(F)cccc2F)c2ccccc2[n+]1[O-]"
  target.desc: "Muscarinic acetylcholine receptor M4 (Homo sapiens) (UniProt P08173)"
  cat: -1
- smiles.record: "O=C(c1ccc2c3c(cccc13)C(=O)N(O)C2=O)N1CCCCC1"
  target.desc: "Muscarinic acetylcholine receptor M4 (Homo sapiens) (UniProt P08173)"
  cat: -1
- smiles.record: "CCc1nc(N2CCCC2)c(C#N)c2c1CCCC2"
  target.desc: "Muscarinic acetylcholine receptor M4 (Homo sapiens) (UniProt P08173)"
  cat: 1
- smiles.record: "CCOC(=O)COn1c(=O)c(-c2ccc(OC)c(OC)c2)[n+]([O-])c2ccccc21"
  target.desc: "Muscarinic acetylcholine receptor M4 (Homo sapiens) (UniProt P08173)"
  cat: -1
- smiles.record: "C/C(NC(=O)c1ccccc1F)=C1\\C(=O)C[C@@H]2[C@H]1C2(C)C"
  target.desc: "Muscarinic acetylcholine receptor M4 (Homo sapiens) (UniProt P08173)"
  cat: -1
- smiles.record: "CCCCCNc1nc(N2CCCC2)c2c(c1C#N)CCN(C)C2"
  target.desc: "Muscarinic acetylcholine receptor M4 (Homo sapiens) (UniProt P08173)"
  cat: 1

###

# assay.overview: inhibitors of TNFa-induced NFkB p65 translocation, primary screen, imaging, HUVEC, MLSMR starter and 10KST1 sets (AID 438);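 further: compound added about 3h40 before a 20 min TNFalpha stimulation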;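 on inhibition: signal is the nuclear over cytoplasmic p65 intensity ratio per well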
# condition.notes: HUVEC TNFa-induced p65 nuclear translocation; at 2 µM, stronger effect = higher value, 0% TNFa-plus-vehicle, 100% no-TNFa wells
Catalogue of compounds with associated inhibition

- compound: "Cc1ccc(-c2nn(C)c(=O)c3ccccc23)cc1CN1CCOCC1"
  inhibition, %: -0.6
- compound: "CN(C)c1ccc(NC(=O)c2cc3c(=O)n4ccccc4nc3n2C)cc1"
  inhibition, %: -10.7
- compound: "COCCCN1C(=O)C(=O)/C(=C(/O)c2ccc(OCC(C)C)cc2C)C1c1cccnc1 (stereo unspecified)"
  inhibition, %: -2.4
- compound: "CC(C)c1nc2n[nH]c(N)c2c2c1CCCC2"
  inhibition, %: 2.1
- compound: "CC1(C)CC(=O)C(C(=O)CCCCC(=O)C2C(=O)CC(C)(C)CC2=O)C(=O)C1"
  inhibition, %: 3.6
- compound: "COC(=O)C(NC(=O)c1ccccc1)(Nc1nccs1)C(F)(F)F (stereo unspecified)"
  inhibition, %: -5.5
- compound: "N#Cc1nc(-c2cccs2)oc1NCc1ccccc1"
  inhibition, %: 0.5
- compound: "CCC(C)Nc1nc(OC)nc(N(C)C#N)n1 (stereo unspecified)"
  inhibition, %: 7.6
- compound: "COC(=O)c1ccc(-n2nnnc2SCc2nn[nH]n2)cc1"
  inhibition, %: -7.8
- compound: "COc1ccc(C(O)C(CN2CCOCC2)c2ccccc2)cc1F (stereo unspecified)"
  inhibition, %: -1.6
- compound: "Nc1cc(=O)[nH]c(SCC(=O)Nc2ccc(Br)cc2)n1"
  inhibition, %: 8.2

###

Catalogue of molecules with associated cell count
# assay.overview: inhibitors of TNFa-induced NFkB p65 translocation, primary screen, imaging, HUVEC, MLSMR starter and 10KST1 sets (AID 438);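 further: compound added about 3h40 before a 20 min TNFalpha stimulation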
# condition.notes: HUVEC TNFa-induced p65 nuclear translocation; measured here: nuclei count (cytotoxicity indicator), at 2.08 µM
readout.type: cell count

- molecule: "Cn1c(=O)c2c(nc(NCCCO)n2C/C=C/c2ccccc2)n(C)c1=O"
  readout.type: "cell count"
  measured.value: 401
- molecule: "Cc1cccc2cc(C#N)c(SCCN3CCCCC3)nc12"
  readout.type: "cell count"
  measured.value: 413
- molecule: "CSc1nc2sc3c(c2c2nnnn12)CCCC3"
  readout.type: "cell count"
  measured.value: 506
- molecule: "CCOC(=O)N1CCC(N2C(=O)c3ccc(C(=O)NCc4ccco4)cc3C2=O)CC1"
  readout.type: "cell count"
  measured.value: 646
- molecule: "O=C(O)CCc1nn2cc(-c3ccccc3)nc2[nH]c1=O"
  readout.type: "cell count"
  measured.value: 580
- molecule: "NC(=O)COC(=O)c1ccc(S(=O)(=O)N2CCCCCC2)cc1"
  readout.type: "cell count"
  measured.value: 449
- molecule: "N#C/C(C(=O)NCc1ccco1)=C1/SC(Cc2ccc(Cl)cc2)C(=O)N1c1ccccc1 (stereo not drawn)"
  readout.type: "cell count"
  measured.value: 633
- molecule: "CC(=O)c1cccc(NC(=O)CCOc2ccccc2)c1"
  readout.type: "cell count"
  measured.value: 580
- molecule: "CCC(C)(C(=O)NC1CCCCC1)N(Cc1ccco1)C(=O)c1ccc2c(c1)OCO2 (stereo not drawn)"
  readout.type: "cell count"
  measured.value: 593
- molecule: "CCOC(=O)N1CCN(c2c(N3CCN(c4ccccc4OC)CC3)c(=O)c2=O)CC1"
  readout.type: "cell count"
  measured.value: 651
- molecule: "Cc1ccc(S(=O)(=O)c2cc3c(=O)n4ccccc4nc3n(CC3CCCO3)c2=N)cc1C (stereo not drawn)"
  readout.type: "cell count"
  measured.value: 716
- molecule: "Cc1cc(Nc2ccccc2)n(-c2ccccc2)n1"
  readout.type: "cell count"
  measured.value: 329
- molecule: "O=C(C1CCC(N2C(=O)C3CC=CCC3C2=O)CC1)N1CCCCC1 (stereo not drawn)"
  readout.type: "cell count"
  measured.value: 257
- molecule: "NC(=O)C(c1ccccc1)C1CCCC1 (stereo not drawn)"
  readout.type: "cell count"
  measured.value: 603
- molecule: "CC(C)C(=O)N1CCN(c2nc(-c3ccccc3)c3c(c2C#N)CC(C)(C)OC3)CC1"
  readout.type: "cell count"
  measured.value: 607
- molecule: "CCN=C1SC(CC(=O)Nc2ccccc2)C(=O)N1CC (stereo not drawn)"
  readout.type: "cell count"
  measured.value: 265
- molecule: "COc1ccccc1N1C(=O)c2ccccc2NC1c1ccncc1 (stereo not drawn)"
  readout.type: "cell count"
  measured.value: 427
- molecule: "Cc1cc(C)n2c(SCCN3C(=O)c4ccccc4C3=O)nnc2n1"
  readout.type: "cell count"
  measured.value: 787
- molecule: "CCc1cccc2c(=O)c(C(=O)N3CCCCCC3)c[nH]c12"
  readout.type: "cell count"
  measured.value: 538
- molecule: "CCOC(=O)N1CCN(C(c2ccc(Cl)cc2)c2sc3nc(C)nn3c2O)CC1 (stereo not drawn)"
  readout.type: "cell count"
  measured.value: 709
- molecule: "Cn1c(=O)[nH]c(=O)c2c1nc(Br)n2CCSc1ncccn1"
  readout.type: "cell count"
  measured.value: 643
- molecule: "CC(C)CNC(=O)c1c(N)n(/N=C/c2cccnc2)c2nc3ccccc3nc12"
  readout.type: "cell count"
  measured.value: 412
- molecule: "CCn1c(=O)c(=O)[nH]c2cc(C(=O)N3CCN(c4ccccc4F)CC3)ccc21"
  readout.type: "cell count"
  measured.value: 688
- molecule: "N#Cc1c(N)nc(SCC(=O)NCc2ccc3c(c2)OCO3)c(C#N)c1-c1cccs1"
  readout.type: "cell count"
  measured.value: 577
- molecule: "COc1ccc(NC(=O)CSc2nnc(-c3ccccc3C)n2C)cc1"
  readout.type: "cell count"
  measured.value: 661
- molecule: "COc1cccc(C(=O)OC2CCCN(C)C2)c1 (stereo not drawn)"
  readout.type: "cell count"
  measured.value: 524
- molecule: "CCOC(=O)c1c(C)n(OCc2ccccc2)c2ccc3c(no[n+]3[O-])c12"
  readout.type: "cell count"
  measured.value: 437
- molecule: "COC(=O)c1sc(NC(=O)c2oc3ccccc3c2C)nc1C"
  readout.type: "cell count"
  measured.value: 594
- molecule: "O=C(CSc1nnc(-c2ccc(Br)o2)n1Cc1ccccc1)c1ccccc1F"
  readout.type: "cell count"
  measured.value: 336
- molecule: "CCN(CC)CCN1C(=O)C(=O)/C(=C(/O)c2c(C)[nH]c(C(=O)OC)c2C)C1c1cccc(OC)c1 (stereo not drawn)"
  readout.type: "cell count"
  measured.value: 699
- molecule: "COc1ccccc1C1/C(=C(/O)c2ccc(C)cc2)C(=O)C(=O)N1CCN1CCOCC1 (stereo not drawn)"
  readout.type: "cell count"
  measured.value: 652
- molecule: "C=CCOC(=O)C1=C(C)NC(SCC(=O)Nc2ccc(C)c(Cl)c2)=C(C#N)C1c1ccco1 (stereo not drawn)"
  readout.type: "cell count"
  measured.value: 654
- molecule: "COc1ccccc1NC(=O)CSc1nnc(-c2ccc(NC(C)=O)cc2)n1C"
  readout.type: "cell count"
  measured.value: 661
- molecule: "Cc1cc(C)n(C2CCCCC2OC(=O)c2ccccc2)n1 (stereo not drawn)"
  readout.type: "cell count"
  measured.value: 526
- molecule: "CS(=O)(=O)N(Cc1ccco1)CC(O)Cn1c2ccccc2c2ccccc21 (stereo not drawn)"
  readout.type: "cell count"
  measured.value: 314
- molecule: "CC(=O)[C@H]1[C@@H]2C(=O)N(c3cccc(Cl)c3)C(=O)[C@@H]2[C@H]2c3ccccc3C=CN21"
  readout.type: "cell count"
  measured.value: 652
- molecule: "COc1ccc(NS(=O)(=O)c2ccc(NC(C)=O)cc2)cc1OC"
  readout.type: "cell count"
  measured.value: 352
- molecule: "COc1ccc(CNC(=O)c2cnc3n(c2=O)CCS3)cc1"
  readout.type: "cell count"
  measured.value: 591
- molecule: "COc1ccc(C2CC(=O)C3=C(C2)Nc2ccccc2N(C(=O)C2CC2)C3c2cccnc2)cc1OC (stereo not drawn)"
  readout.type: "cell count"
  measured.value: 683
- molecule: "COc1cc2c(cc1OC)-c1cc(Nc3ccc4c(c3)OCCO4)nc(=O)n1CC2"
  readout.type: "cell count"
  measured.value: 649
- molecule: "O=C(Cn1cnc2c(nnn2-c2ccc(F)cc2)c1=O)N1CCCc2ccccc21"
  readout.type: "cell count"
  measured.value: 654
- molecule: "Cc1nc(SCC(=O)Nc2ccc3c(c2)OCO3)c(C#N)c2c1CCCC2"
  readout.type: "cell count"
  measured.value: 490
- molecule: "O=C(NCc1ccc(F)cc1)C1CCN(C(=O)NCc2ccccc2)CC1"
  readout.type: "cell count"
  measured.value: 643
